assay: Pharmacokinetic study (oral, cannulated rats, LC/MS of plasma)
Assay type: in vivo, rat
stated.conditions: rat, plasma; male Wistar rats, oral, 5 mg/kg, mixture of both compounds in Solutol HS 15/PEG300 (3:1)
Protocol: Adult male Wistar rats weighing 278-290 g (Jinvier, France) were used in the study. Animals were housed in a temperature-controlled room (20-24° C.) and maintained in a 12 h light/12 h dark cycle. Food and water were available ad libitum. For surgery, rats were anaesthetised with a ketamine (90 mg/kg)/xylazine (10 mg/kg) mixture, and cannulated with silicone tubing via the right jugular vein. […]
experimental.readout: AUC(0-t)

GET /value?item= CCC(C)[C@H](NC(=O)Cc1ccccc1F)C(=O)N[C@]1(C(=O)N[C@H](C(=S)NCC2CCOCC2)C(C)CC)CCc2[nH]c3c(C(F)(F)F)cccc3c2C1 (stereo partly shown) &field=AUC(0-t) returns 306 ng·h/mL
